Target: human GcgR (Homo sapiens)
Sequence (P47871 26-477): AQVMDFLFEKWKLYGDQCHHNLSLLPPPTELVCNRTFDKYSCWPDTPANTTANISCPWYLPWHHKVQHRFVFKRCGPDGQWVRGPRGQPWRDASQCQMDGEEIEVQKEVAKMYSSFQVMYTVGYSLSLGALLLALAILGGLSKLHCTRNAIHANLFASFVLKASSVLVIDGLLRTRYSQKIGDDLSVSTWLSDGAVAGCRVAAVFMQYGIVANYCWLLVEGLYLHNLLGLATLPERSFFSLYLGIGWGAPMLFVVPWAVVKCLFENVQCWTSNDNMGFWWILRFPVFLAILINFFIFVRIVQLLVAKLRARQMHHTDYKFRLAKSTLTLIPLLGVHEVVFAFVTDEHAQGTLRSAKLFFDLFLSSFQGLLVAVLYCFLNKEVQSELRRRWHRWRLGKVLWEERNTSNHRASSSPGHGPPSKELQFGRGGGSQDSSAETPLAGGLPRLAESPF
Assay: Functional cAMP activity in the presence of 1% HSA
Format: cell-based
Conditions: read-out: cAMP Rel EC50, hGcgR
Starred links: 1 amine or outer side, 2 acyl side, 3 side chain; linkers in the order of their positions; H or OH if unused. Non-standard residues stand in square brackets, D forms with d. Groups on a side chain read outwards from the residue. No end group written: not given here. *: point of attachment. C20 diacid = O=C(O)CCCCCCCCCCCCCCCCCCC(=O)*; C18 diacid = O=C(O)CCCCCCCCCCCCCCCCC(=O)*; αMePhe(2-F) = C[C@](N)(Cc1ccccc1F)C(=O)O; γGlu = O=C(O)[C@H](CCC(=O)[*:2])N[*:1]; αMe4Pal = C[C@](N)(Cc1ccncc1)C(=O)O; αMeY = C[C@](N)(Cc1ccc(O)cc1)C(=O)O; αMeF = C[C@](N)(Cc1ccccc1)C(=O)O; 4Pal = N[C@@H](Cc1ccncc1)C(=O)O; αMeL = CC(C)C[C@](C)(N)C(=O)O; αMeS = C[C@](N)(CO)C(=O)O; Orn = NCCC[C@H](N)C(=O)O; AEEA = NCCOCCOCC(=O)O; Aib = CC(C)(N)C(=O)O
Attribute measured: log10 EC50 (log10 of the value in nM)

[[record]]
substance = "Y[Aib]QGTFTSD[4Pal]S[Orn][αMeL]LD[Orn]K([γGlu-γGlu-C18 diacid])AQ[αMe4Pal]AFIEYLIAGGPSSGAPPPSGSE-NH2 [Example 1011]"
value = 2.66

[[record]]
substance = "H-Y[Aib]QGTFTSDFS[Orn][αMeL]LDKK([AEEA-γGlu-C18 diacid])AQ[Aib]AFIE[αMeY]LIEGGPSSGAPPPSGS-NH2 [Example 839]"
value = 3.05

[[record]]
substance = "H-Y[Aib]QGTFTSDYSK[αMeL]LDKK([AEEA-γGlu-C20 diacid])AQQAFIEYLIAGGPSSGEPPPSGD-NH2 [Example 337]"
value = 3.47

[[record]]
substance = "Y[Aib]QGTFTSD[4Pal]SQ[αMeL]LDKK([AEEA-γGlu-C18 diacid])AQ[αMe4Pal]AFIEYLIE[dA]GPSSGAPPPSGS-NH2 [Example 829]"
value = 2.51

[[record]]
substance = "H-Y[Aib]QGT[αMePhe(2-F)]TSD[4Pal][αMeS]I[αMeL]LD[Orn]K([AEEA-γGlu-C18 diacid])AQ[Aib]NFIEYLIEGGPSSGEPPPEGE-NH2 [Example 483]"
value = 2.36

[[record]]
substance = "H-Y[Aib]QGTFTSD[4Pal]SQ[αMeL]LDKK([AEEA-γGlu-C18 diacid])AQ[αMe4Pal]AFIE[αMe4Pal]LIE[Aib]GPSSGAPPPSGTE-NH2 [Example 1116]"
value = 2.56

[[record]]
substance = "H-Y[Aib]QGT[αMePhe(2-F)]TSD[4Pal]SILLDKK([γGlu-γGlu-C18 diacid])AQ[Aib]AFIE[αMeY]LEEGGPSSGAPPPSGSGE-NH2 [Example 666]"
value = 2.35

[[record]]
substance = "H-Y[Aib]QGTFTSD[4Pal]SQ[αMeL]LDKK([AEEA-γGlu-C18 diacid])AQ[αMe4Pal]AFIEWLIEGGPSSGAPPPSGS-NH2 [Example 830]"
value = 2.91

[[record]]
substance = "H-Y[Aib]QGTFTSDFS[Orn][αMeL]LDKK([AEEA-AEEA-γGlu-C18 diacid])AQ[Aib]AFIEYLLE[Aib]GESSGAPPPSGS-NH2 [Example 179]"
value = 3.16

[[record]]
substance = "H-Y[Aib]QGT[αMePhe(2-F)]TSD[4Pal]SI[αMeL]LD[Orn]K([γGlu-γGlu-C18 diacid])AQ[αMe4Pal][Orn]FI[dE][αMeY]LIEGGPSSGEPPPEGE-NH2 [Example 683]"
value = 2.14

[[record]]
substance = "Y[Aib]QGTFTSD[4Pal]SQ[αMeL]LDKK([AEEA-γGlu-C18 diacid])AQ[αMe4Pal]AFIEWLIEGGPSSGAPPPSG[4Pal]-NH2 [Example 832]"
value = 3.13

[[record]]
substance = "H-Y[Aib]QGTFTSD[4Pal]S[Orn][αMeL]LDKK([AEEA-γGlu-C18 diacid])AQ[Aib]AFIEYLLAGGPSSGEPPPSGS-NH2 [Example 154]"
value = 3.02

[[record]]
substance = "H-Y[Aib]QGTFTSDFS[Orn][αMeL]LDKK([AEEA-γGlu-C18 diacid])AQ[Aib]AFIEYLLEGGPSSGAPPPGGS[AEEA]-NH2 [Example 66]"
value = 2.62

[[record]]
substance = "H-Y[Aib]QGTFTSD[4Pal]SQ[αMeL]LDKK([AEEA-γGlu-C18 diacid])AQ[αMe4Pal]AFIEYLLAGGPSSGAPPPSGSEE-NH2 [Example 1037]"
value = 2.46

[[record]]
substance = "H-Y[Aib]QGTFTSD[4Pal]SR[αMeL]LDKK([AEEA-γGlu-C18 diacid])AQ[αMe4Pal]AFIEYLIE[Aib]GESSGAPPPSGE-NH2 [Example 225]"
value = 2.75

[[record]]
substance = "H-Y[Aib]QGT[αMeF]TSD[4Pal][αMeS]I[αMeL]LD[Orn]K([γGlu-γGlu-C18 diacid])AQ[αMe4Pal]EFI[dE][αMeY]LIEGGPSSGEPPPSGE-NH2 [Example 1171]"
value = 2.37

[[record]]
substance = "Y[Aib]QGTFTSDFS[Orn][αMeL]LDKK([AEEA-γGlu-C18 diacid])AQ[Aib]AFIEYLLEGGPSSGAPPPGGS-NH2 [Example 62]"
value = 2.60

[[record]]
substance = "H-Y[Aib]QGTFTSD[4Pal]SK[αMeL]LDKK([AEEA-γGlu-C18 diacid])AQ[Aib]AFIEYLIE[Aib]GPSSGAPPPSGSEE-NH2 [Example 902]"
value = 3.13

[[record]]
substance = "H-Y[Aib]QGT[αMePhe(2-F)]TSD[4Pal]SILLDKK([γGlu-γGlu-C18 diacid])AQ[Aib]AFIEYLEEGGPSSGEPPPSGTGE-NH2 [Example 607]"
value = 2.75

[[record]]
substance = "H-Y[Aib]QGTFTSD[4Pal]SQ[αMeL]LDKK([AEEA-γGlu-C18 diacid])AQ[αMe4Pal]AFIEWLIEGGPSSGAPPPSGT-NH2 [Example 831]"
value = 3.16

[[record]]
substance = "H-Y[Aib]QGTFTSDFS[Orn][αMeL]LDKK([AEEA-γGlu-C18 diacid])AQ[Aib]AFIEYLLEGGHSSGEPPPGGS-NH2 [Example 164]"
value = 2.61

[[record]]
substance = "H-Y[Aib]QGTFTSD[4Pal]SQ[αMeL]LDKK([AEEA-γGlu-C18 diacid])AQ[αMe4Pal]AFIEYLIE[Aib]GPSSGAPPPSGSGE-NH2 [Example 888]"
value = 2.75

[[record]]
substance = "H-Y[Aib]QGTFTSD[4Pal]SQ[αMeL]LDKK([γGlu-γGlu-C18 diacid])AQ[αMe4Pal]AFIE[αMe4Pal]LIE[Aib]GPSSGAPPPSGE-NH2 [Example 1120]"
value = 2.46

